Origin of the recorded values: patent US20110224204A1

pIC50: −log10 of the molar value.
Record type: pIC50 measurement. Applies to: UniProt Q9Y233
Sequence (Q9Y233 1-779 isoform Q9Y233-1): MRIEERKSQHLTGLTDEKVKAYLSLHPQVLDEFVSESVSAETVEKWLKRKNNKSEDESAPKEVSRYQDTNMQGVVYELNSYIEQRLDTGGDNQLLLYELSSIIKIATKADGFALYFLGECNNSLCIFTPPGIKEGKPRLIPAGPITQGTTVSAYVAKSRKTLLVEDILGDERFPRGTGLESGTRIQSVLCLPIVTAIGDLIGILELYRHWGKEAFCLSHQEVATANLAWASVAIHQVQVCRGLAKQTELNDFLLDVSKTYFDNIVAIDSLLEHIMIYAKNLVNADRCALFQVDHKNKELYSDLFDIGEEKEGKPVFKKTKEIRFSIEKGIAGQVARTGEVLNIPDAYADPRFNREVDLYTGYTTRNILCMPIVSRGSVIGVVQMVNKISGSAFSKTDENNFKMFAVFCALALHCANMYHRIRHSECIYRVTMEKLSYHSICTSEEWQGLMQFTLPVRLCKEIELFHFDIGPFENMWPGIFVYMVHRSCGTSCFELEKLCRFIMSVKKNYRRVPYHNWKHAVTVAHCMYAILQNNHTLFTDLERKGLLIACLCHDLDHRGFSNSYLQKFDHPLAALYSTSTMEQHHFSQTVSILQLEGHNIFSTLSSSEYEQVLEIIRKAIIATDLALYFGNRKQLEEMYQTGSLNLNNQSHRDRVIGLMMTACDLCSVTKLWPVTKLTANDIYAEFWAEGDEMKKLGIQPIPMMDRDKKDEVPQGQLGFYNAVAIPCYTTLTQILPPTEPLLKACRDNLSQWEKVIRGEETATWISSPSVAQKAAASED
recorded-endpoint: pIC50

N#Cc1ccc(-c2ccc(OCc3ccc4ccccc4n3)cc2)c(-c2ccncc2)c1 [Example 1885]    < 7.30
Cc1cnc(COc2ccc(-c3ccccc3-c3ccncc3)cc2)c(C)c1 [Example 1887]    ≥ 7.30
O=[N+]([O-])c1cccc(-c2ccncc2)c1-c1ccc(OCc2ccc3ccccc3n2)cc1 [Example 384]    ≥ 7.30
Clc1ccc(-c2ccc(OCc3ccc4ccccc4n3)cc2)c(-c2ccncc2)c1 [Example 1876]    < 7.30
